# experimentalSystem: EGFR mutant Del19 (E746-A750) (Homo sapiens, UniProt P00533, DEL746-750)
# Construct: truncated human JAK3, EGFR mutants such as del E746-A750; purchased Carna Biosciences
# Sequence (P00533 with tags, fused parts or gaps DEL746-750 limits assumed): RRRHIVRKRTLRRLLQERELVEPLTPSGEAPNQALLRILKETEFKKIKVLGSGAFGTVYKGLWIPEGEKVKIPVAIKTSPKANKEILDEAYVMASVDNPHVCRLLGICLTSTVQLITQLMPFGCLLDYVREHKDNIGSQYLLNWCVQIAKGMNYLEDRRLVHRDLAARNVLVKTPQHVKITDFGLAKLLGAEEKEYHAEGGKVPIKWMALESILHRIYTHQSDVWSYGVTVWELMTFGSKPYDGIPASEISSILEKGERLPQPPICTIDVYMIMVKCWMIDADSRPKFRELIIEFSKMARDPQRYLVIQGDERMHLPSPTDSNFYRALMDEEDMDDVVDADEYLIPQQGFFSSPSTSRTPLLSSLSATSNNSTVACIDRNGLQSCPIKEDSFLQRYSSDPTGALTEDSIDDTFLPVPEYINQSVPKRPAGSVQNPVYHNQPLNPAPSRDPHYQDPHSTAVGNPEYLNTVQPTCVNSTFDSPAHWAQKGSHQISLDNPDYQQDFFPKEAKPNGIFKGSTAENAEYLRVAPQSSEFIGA
# assay: Kinase inhibition assay, EGFR del E746-A750;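 further: truncated human EGFR mutant kinase, two-hour preincubation with compound, then one-hour reaction with ATP and ULight-PolyGT peptide, LANCE Europium-antibody phosphorylation readout, IC50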
# Type: biochemical
# experimentalParameters: read-out: EGFR mutants Del19 (E746-A750)
pIC50: −log10 of the molar value.
Entries annotated with measured pIC50

# annotated cases, reported pIC50 shown
C=CC(=O)Nc1cc(Nc2nccc(-n3cc(CN4CCC4)c(C4CC4)n3)n2)c(OC)cc1N(C)CCOC = > 7.70
C=CC(=O)Nc1cc(Nc2ncc(C)c(-n3cc(CN4CC(O)C4)c(C)n3)n2)c(OC)cc1N1CCN(C)CC1 = > 7.70
C=CC(=O)Nc1cc(Nc2ncc(Cl)c(-n3cc(CN4CC(O)C4)c(C)n3)n2)c(OC)cc1N1CCOCC1 = > 7.70

Answer with pIC50 of Cc1cc(C)cc(Nc2nccc(-n3cc(CN4CC(O)C4)c(C)n3)n2)c1 [Compound 147, reference compound] measured for EGFR mutant Del19 (E746-A750) (Homo sapiens, UniProt P00533, DEL746-750). < 6.00

###

# experimentalSystem: EGFR mutant L858R (Homo sapiens, UniProt P00533, L858R)
# Construct: truncated human JAK3, EGFR mutants such as del E746-A750; purchased Carna Biosciences
# Sequence (P00533 669-1210 L858R limits assumed): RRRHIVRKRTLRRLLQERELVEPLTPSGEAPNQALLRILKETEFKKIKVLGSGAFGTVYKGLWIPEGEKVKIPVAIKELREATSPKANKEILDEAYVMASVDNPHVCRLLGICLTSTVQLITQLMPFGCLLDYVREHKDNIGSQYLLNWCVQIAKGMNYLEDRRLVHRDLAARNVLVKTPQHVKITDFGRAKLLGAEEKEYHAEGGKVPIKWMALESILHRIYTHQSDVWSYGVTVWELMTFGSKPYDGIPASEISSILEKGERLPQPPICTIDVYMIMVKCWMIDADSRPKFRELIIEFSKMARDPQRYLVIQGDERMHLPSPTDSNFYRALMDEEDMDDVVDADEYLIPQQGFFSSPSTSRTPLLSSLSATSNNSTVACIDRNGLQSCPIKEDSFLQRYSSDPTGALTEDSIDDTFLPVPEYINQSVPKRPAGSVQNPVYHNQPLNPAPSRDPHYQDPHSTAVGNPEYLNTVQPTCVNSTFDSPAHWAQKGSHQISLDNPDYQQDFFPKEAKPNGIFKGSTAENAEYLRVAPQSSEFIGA
# assay: Kinase inhibition assay, EGFR L858R;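 further: truncated human EGFR L858R kinase with compound preincubation, ULight-PolyGT peptide phosphorylation read by Europium-antibody Lance detection, IC50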
# Type: biochemical
# experimentalParameters: read-out: EGFR mutants L858R
pIC50: −log10 of the molar value.
propertyName: pIC50

Here are 10 compounds together with their reported answers.
C=CC(=O)Nc1cc(Nc2ncc(F)c(-n3cc(C)c(CN4CCC4)c3)n2)c(OC)cc1N1CCC1 = > 7.70
C=CC(=O)Nc1cc(Nc2nccc(-n3cc(CN(C)C)c(C)n3)n2)c(OC)cc1N1CCOCC1 = > 7.70
C=CC(=O)Nc1cc(Nc2nccc(-n3cc(CN4CCC4)c(C)n3)n2)c(OC)cc1-c1ccccc1 = 6.70 to 7.70
C=CC(=O)Nc1cc(Nc2nccc(-n3cc(CN4CCC4)c(-c4cccs4)n3)n2)c(OC)cc1N1CCOCC1 = > 7.70
C=CC(=O)Nc1cc(Nc2nccc(-n3cc(CN4CCC4)c(C)n3)n2)c(OC)cc1N1CCN(C)CC1 = > 7.70
C=CC(=O)Nc1cc(Nc2ncc(C)c(-n3cc(CN4C[C@H](O)[C@H](OC)C4)cn3)n2)c(OC)cc1N(C)CCN(C)C = > 7.70
C=CC(=O)Nc1cc(Nc2nccc(-n3cc(CN4CCC4)c(C)n3)n2)c(OC)cc1-c1ccccc1OC = 6.00 to 6.70
C=CC(=O)Nc1cc(Nc2nccc(-n3cc(CN(C)C)c(-c4ccc(F)cc4)n3)n2)c(OC)cc1N1CCOCC1 = 6.70 to 7.70
C=CC(=O)Nc1cc(Nc2nccc(-n3cc(CN(C)C)c(-c4ccccc4)n3)n2)c(OC)cc1N1CCC1 = > 7.70
C=CC(=O)Nc1cc(Nc2ncc(C)c(-n3cc(CN4CC(O)C4)c(C)n3)n2)c(OC)cc1N(C)CCN(C)C = > 7.70

Turning now to a further compound:
Given C=CC(=O)Nc1cc(Nc2ncc(C)c(-n3cc(CN4C[C@@H](O)[C@@H](O)C4)c(C)n3)n2)c(OC)cc1N1CCOCC1 , respond with its pIC50. > 7.70

###

# experimentalSystem: JAK3 (Homo sapiens, UniProt P52333)
# Construct: EGFR and JAK3 (JH1domain-catalytic) kinases, and mutant forms thereof
# Sequence (P52333 822-1111 limits assumed): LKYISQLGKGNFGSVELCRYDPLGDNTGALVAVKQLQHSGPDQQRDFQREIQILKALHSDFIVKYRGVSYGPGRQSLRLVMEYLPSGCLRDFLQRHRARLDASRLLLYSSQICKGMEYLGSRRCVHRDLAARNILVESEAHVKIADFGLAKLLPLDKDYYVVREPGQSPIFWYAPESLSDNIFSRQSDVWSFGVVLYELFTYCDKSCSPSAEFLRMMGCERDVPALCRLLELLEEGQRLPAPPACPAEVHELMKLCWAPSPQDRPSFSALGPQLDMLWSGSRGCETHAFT
# assay: Kinase inhibition assay, JAK3;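 further: IC50 against purified truncated human JAK3 preincubated with compound, then reacted with ATP and ULight-Jak1 peptide, phosphorylation read by Europium-labeled antibody LANCE detection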
# experimentalParameters: biochemical potency
propertyName: IC50

C=CC(=O)Nc1cc(Nc2ncc(Cl)c(-n3cc(CN4C[C@@H](O)[C@@H](O)C4)c(C)n3)n2)c(OC)cc1N1CCN(C)CC1 = < 20 nM
C=CC(=O)Nc1cc(Nc2ncc(Cl)c(-n3cc(CN4CC(O)C4)c(C)n3)n2)c(OC)cc1N1CCOCC1 = < 20 nM
C=CC(=O)Nc1cc(Nc2nccc(-n3cc(CN(C)C)c(C)n3)n2)c(OC)cc1N1CCN(CCF)CC1 = < 20 nM
C=CC(=O)Nc1cc(Nc2ncc(C)c(-n3cc(CN(C)C)c(C)n3)n2)c(OC)cc1N1CCOCC1 = < 20 nM
C=CC(=O)Nc1cc(Nc2ncc(C)c(-n3cc(CN4CCC4)cn3)n2)c(OC)cc1N1CCOCC1 = < 20 nM
C=CC(=O)Nc1cc(Nc2nccc(-n3cc(CN4CCC4)c(C)n3)n2)c(OC)cc1N1CCOCC1 = < 20 nM

Moving on to the next molecule.
For the molecule C=CC(=O)Nc1cc(Nc2nccc(-n3cc(CN4CCC4)c(C)n3)n2)c(OC)cc1-c1ccccc1 , give its measured IC50 value. 20 to 200 nM

###

# Tested on: H1975 (EGFR L858R/T790M mutant)
# assay: Cell viability assay, H1975;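 further: NSCLC cells whose survival relies on EGFR L858R/T790M, exposed 72 h to serially diluted compound, ATP-based viability readout, with the H2073 line (wildtype EGFR dependent) as wildtype comparator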
# Format: cell-based
# experimentalParameters: cellular potency ratio
propertyName: Selectivity over wildtype, Wildtype vs mutant H2073/H1975 (fold)

Determine from records and report Selectivity over wildtype, Wildtype vs mutant H2073/H1975 (fold) for C=CC(=O)Nc1cc(Nc2nccc(-n3cc(CN(C)C)c(C(C)(C)C)n3)n2)c(OC)cc1N1CCOCC1 20-200 fold

Specify reported Selectivity over wildtype, Wildtype vs mutant H2073/H1975 (fold) for the compound shown: C=CC(=O)Nc1cc(Nc2nccc(-n3cc(CN(C)CC)c(-c4ccccc4)n3)n2)c(OC)cc1N1CCOCC1 >200 fold

Tell me measured Selectivity over wildtype, Wildtype vs mutant H2073/H1975 (fold) for C=CC(=O)Nc1cc(Nc2nccc(-n3cc(CN(C)C)c(C)n3)n2)c(OC)cc1N1CCOCC1 please. 101-200 fold

Hello, please tell me recorded Selectivity over wildtype, Wildtype vs mutant H2073/H1975 (fold) for this one: C=CC(=O)Nc1cc(Nc2ncc(C)c(-n3cc(CN4CCC4)cn3)n2)c(OC)cc1N1CCOCC1 20-100 fold

Quote Selectivity over wildtype, Wildtype vs mutant H2073/H1975 (fold) reported for C=CC(=O)Nc1cc(Nc2ncc(C)c(-n3cc(CN4C[C@H](O)[C@H](OC)C4)c(C)n3)n2)c(OC)cc1N1CCOCC1 please. 101-200 fold

State its Selectivity over wildtype, Wildtype vs mutant H2073/H1975 (fold): C=CC(=O)Nc1cc(Nc2nccc(-n3cc(CN(C)C)c(C(C)(C)C)n3)n2)c(OC)cc1N(C)CCOC 101-200 fold

Input C=CC(=O)Nc1cc(Nc2ncc(C)c(-n3cc(CN(C)C)c(C(C)C)n3)n2)c(OC)cc1N1CCOCC1 , output reported Selectivity over wildtype, Wildtype vs mutant H2073/H1975 (fold). >200 fold

Consider the compound C=CC(=O)Nc1cc(Nc2ncc(C)c(-n3cc(CN4CC(O)C4)cn3)n2)c(OC)cc1N1CCOCC1 . State its measured Selectivity over wildtype, Wildtype vs mutant H2073/H1975 (fold). 20-100 fold

Input CC/C=C\CC(=O)Nc1cc(Nc2nccc(-n3cc(CN(C)C)c(-c4ccccc4)n3)n2)c(OC)cc1N1CCOCC1 [Compound 156, reference compound] , output reported Selectivity over wildtype, Wildtype vs mutant H2073/H1975 (fold). <20 fold

Give reported Selectivity over wildtype, Wildtype vs mutant H2073/H1975 (fold) value for C=CC(=O)Nc1cc(Nc2nccc(-n3cc(CN4CCC4)c(-c4ccccc4)n3)n2)c(OC)cc1N1CCOCC1 >200 fold

Quick one: give measured Selectivity over wildtype, Wildtype vs mutant H2073/H1975 (fold) for Cc1cc(C)cc(Nc2nccc(-n3cc(CN4CC(O)C4)c(C)n3)n2)c1 [Compound 147, reference compound] <20 fold

###

Recorded pIC50 values for a group of compounds are listed next.
# experimentalSystem: EGFR mutant T790M (Homo sapiens, UniProt P00533, T790M)
# Construct: truncated human JAK3, EGFR mutants such as del E746-A750
# Sequence (P00533 669-1210 T790M limits assumed): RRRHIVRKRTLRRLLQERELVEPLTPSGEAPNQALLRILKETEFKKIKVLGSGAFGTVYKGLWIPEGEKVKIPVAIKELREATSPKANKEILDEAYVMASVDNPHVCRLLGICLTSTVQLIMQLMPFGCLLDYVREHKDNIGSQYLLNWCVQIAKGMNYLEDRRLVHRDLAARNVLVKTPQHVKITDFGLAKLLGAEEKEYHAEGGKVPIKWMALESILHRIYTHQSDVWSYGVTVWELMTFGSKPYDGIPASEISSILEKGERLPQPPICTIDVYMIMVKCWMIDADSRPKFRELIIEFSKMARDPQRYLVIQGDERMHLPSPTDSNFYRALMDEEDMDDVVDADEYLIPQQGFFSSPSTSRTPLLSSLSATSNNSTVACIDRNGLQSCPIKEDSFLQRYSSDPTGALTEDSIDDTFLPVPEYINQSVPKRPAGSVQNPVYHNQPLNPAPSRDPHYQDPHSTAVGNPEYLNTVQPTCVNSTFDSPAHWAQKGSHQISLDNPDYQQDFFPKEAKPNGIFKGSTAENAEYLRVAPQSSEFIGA
# assay: Kinase inhibition assay, EGFR mutant T790M;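 further: truncated human EGFR mutant enzyme preincubated two hours with compound, then ATP plus ULight-PolyGT peptide for one hour, Europium-labeled antibody LANCE detection, IC50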
# experimentalParameters: biochemical potency
pIC50: −log10 of the molar value.

Below are worked cases with known answers.
C=CC(=O)Nc1cc(Nc2nccc(-n3cc(CN4CC(OC)C4)c(C)n3)n2)c(OC)cc1N1CCOCC1 = 6.00 to 6.70
C=CC(=O)Nc1cc(Nc2ncc(C)c(-n3cc(CN4CCC4)c(-c4ccccc4)n3)n2)c(OC)cc1N1CCOCC1 = > 7.70
C=CC(=O)Nc1cc(Nc2nccc(-n3cc(CN4CCC4)c(-c4ccccc4)n3)n2)c(OC)cc1N1CCC1 = > 7.70
C=CC(=O)Nc1cc(Nc2nccc(-n3cc(CN4CCC4)c(C)n3)n2)c(OC)cc1C1=CCN(C)CC1 = > 7.70
C=CC(=O)Nc1cc(Nc2ncc(C)c(-n3cc(CN(C)C)c(C)n3)n2)c(OC)cc1N1CCOCC1 = > 7.70

Quote pIC50 reported for C=CC(=O)Nc1cc(Nc2nccc(-n3cc(CN4CCC4)c(C4CC4)n3)n2)c(OC)cc1N1CCC1 please. > 7.70

Supply measured pIC50 of COc1cc(N2CCOCC2)c(N)cc1Nc1nccc(-n2cc(CN(C)C)c(-c3ccccc3)n2)n1 [Compound 153, reference compound] in your reply. < 6.00

Look up and report measured pIC50 for this entry: C=CC(=O)Nc1cc(Nc2ncc(Cl)c(-n3cc(CN4C[C@@H](O)[C@@H](O)C4)c(C)n3)n2)c(OC)cc1N1CCN(C)CC1 > 7.70

State its pIC50 for this compound: C=CC(=O)Nc1cc(Nc2nccc(-n3cc(CN4CCC4)c(C(C)C)n3)n2)c(OC)cc1N1CCCC1 > 7.70

Please indicate pIC50 recorded for C=CC(=O)Nc1cc(Nc2nccc(-n3cc(CO)c(-c4ccccc4)n3)n2)c(OC)cc1N1CCOCC1 6.00 to 6.70

Values from patent USRE50528E1
